test target: H1 HA A/New Caledonia/20/1999 (Influenza A virus, UniProt Q6WG00)
assay remarks: AlphaLISA binding competition, HA + stem-binder
Text: Binding competition studies were designed to test compounds for competition with other well characterized HA binding proteins (including e.g. CR9114) with known epitopes on HA. The epitopes where either located at the stem of the HA (viral membrane proximal part of HA) or, for control purposes, at the head of HA (viral membrane distal part of HA). If competition was observed, it is assumed that both molecules bind to a similar or at least overlapping epitope at the surface of HA. […]
*1 amine or outer side, *2 acyl side, *3 side chain or, on linkers, in order; H or OH if unused. Where a SMILES comes first, the peptide text is derived from it. Bridges are numbered along the chain shown (N, C = ends). [ ]: non-standard residue; d: D form. Glutaryl = O=C(CCCC(=O)[*:2])[*:1]; hhPhe = N[C@@H](CCCc1ccccc1)C(=O)O; Orn = NCCC[C@H](N)C(=O)O; βAla = NCCC(=O)O
quantity measured: IC50
# number then unit; no other words

Query: // lookup IC50 | system=H1 HA A/New Caledonia/20/1999 (Influenza A virus, UniProt Q6WG00) | key= CC(=O)N[C@@H](CCCc1ccccc1)C(=O)N[C@H]1CCCNC(=O)CCNC(=O)[C@H](CO)NC(=O)[C@H](CC(C)C)NC(=O)[C@H](Cc2c[nH]c3ccccc23)NC(=O)[C@H](CCC(=O)O)NC(=O)[C@H](Cc2ccccc2)NC(=O)[C@H](Cc2ccc(O)cc2)NC(=O)[C@H](CCCCNC(=O)CCCC(=O)O)NC(=O)[C@H](CC(C)C)NC1=O [CP141066] (Ac-[hhPhe][Orn]LK(Glutaryl)YFEWLS[βAla]; lactam 2-C)
Reply: 186 nM

---

# reported pIC50; entries follow
test target: H1 HA A/New Caledonia/20/1999 (Influenza A virus, UniProt Q6WG00)
assay remarks: AlphaLISA binding competition, HA + stem-binder
*1 amine or outer side, *2 acyl side, *3 side chain or, on linkers, in order; H or OH if unused. Where a SMILES comes first, the peptide text is derived from it. Bridges are numbered along the chain shown (N, C = ends). [ ]: non-standard residue; d: D form. Phe(3,4-Cl2) = N[C@@H](Cc1ccc(Cl)c(Cl)c1)C(=O)O; X2 = O=C(CN(CC(=O)[*:2])CC(=O)[*:3])[*:1]; X1 = NCCC(=O)N[C@@H](CN[*:2])C(=O)[*:1]; Ala(cPent) = N[C@@H](CC1CCCC1)C(=O)O; hhPhe = N[C@@H](CCCc1ccccc1)C(=O)O; NMeL = CN[C@@H](CC(C)C)C(=O)O; Orn = NCCC[C@H](N)C(=O)O; βAla = NCCC(=O)O
Keep in mind that pIC50 stands for -log10 of concentration in molar terms.

| compound | test result |
| --- | --- |
| CC(=O)N[C@@H](CCCc1ccccc1)C(=O)N[C@H]1CCCNC(=O)CCNC(=O)[C@H](CO)NC(=O)[C@H](CC(C)C)NC(=O)[C@H](Cc2c[nH]c3ccccc23)NC(=O)[C@H](CCC(=O)O)NC(=O)[C@H](Cc2ccc(Cl)c(Cl)c2)NC(=O)[C@H](Cc2ccc(O)cc2)NC(=O)[C@H](CCC(=O)O)NC(=O)[C@H](CC(C)C)NC1=O [CP141019] (Ac-[hhPhe][Orn]LEY[Phe(3,4-Cl2)]EWLS[βAla]; lactam 2-C) | 7.30 |
| CC(=O)N[C@@H](CCCc1ccccc1)C(=O)N[C@H]1CCCNC(=O)CCNC(=O)[C@H](CO)NC(=O)[C@H](CC(C)C)NC(=O)[C@H](Cc2c[nH]c3ccccc23)NC(=O)[C@H](CCC(=O)O)NC(=O)[C@H](Cc2ccccc2)NC(=O)[C@H](Cc2ccc(O)cc2)NC(=O)[C@H](CCC(=O)O)NC(=O)[C@H](CC2CCCC2)NC1=O [CP141036] (Ac-[hhPhe][Orn][Ala(cPent)]EYFEWLS[βAla]; lactam 2-C) | 6.87 |

Query: Consider the compound shown here: CC(=O)N[C@@H](CCCc1ccccc1)C(=O)N[C@H]1CCCNC(=O)CCNC(=O)[C@H](CO)NC(=O)[C@H](CC(C)C)NC(=O)[C@H](Cc2c[nH]c3ccccc23)NC(=O)[C@H](CCC(=O)O)NC(=O)[C@H](Cc2ccccc2)NC(=O)[C@H](Cc2ccc(O)cc2)NC(=O)[C@H](CCC(=O)O)NC(=O)[C@H](CC(C)C)N(C)C1=O [CP141037] (Ac-[hhPhe][Orn][NMeL]EYFEWLS[βAla]; lactam 2-C) What is its recorded pIC50?
Reply: 7.09

Query: Recorded pIC50 of CC(=O)N[C@@H](CCCNC(=N)N)C(=O)N[C@H]1CCCNC(=O)CN2CC(=O)NCCC[C@@H](C(N)=O)NC(=O)[C@H](CO)NC(=O)[C@H](CC(C)C)NC(=O)[C@H](Cc3c[nH]c4ccccc34)NC(=O)[C@H](CCC(=O)O)NC(=O)[C@H](Cc3ccccc3)NC(=O)[C@H](Cc3ccc(O)cc3)NC(=O)[C@H](CCCNC(=O)C2)NC(=O)[C@H](CC(C)C)NC1=O [CP141032] (Ac-R[Orn]L[Orn]YFEWLS[Orn]-NH2; linker 2-4-11 via X2) , please.
Reply: 5.65

Query: What value of measured pIC50 is listed for CC(=O)N[C@@H](CCCc1ccccc1)C(=O)N[C@H]1CCCNC(=O)CCNC(=O)[C@H](CO)NC(=O)[C@H](CC(C)C)NC(=O)[C@H](Cc2c[nH]c3ccccc23)NC(=O)[C@H](CCC(=O)O)NC(=O)[C@H](Cc2ccccc2)NC(=O)[C@H](Cc2ccc(O)cc2)NC(=O)[C@H](CCCNC(=N)N)NC(=O)[C@H](CC(C)C)NC1=O [CP132070] (Ac-[hhPhe][Orn]LRYFEWLS[βAla]; lactam 2-C) ?
Reply: 6.75

Query: Sample CC(=O)N[C@@H](CCCc1ccccc1)C(=O)N[C@H]1CCCNC(=O)[C@@H](NC(=O)CCN)CNC(=O)[C@H](CO)NC(=O)[C@H](CC(C)C)NC(=O)[C@H](Cc2c[nH]c3ccccc23)NC(=O)[C@H](CCC(=O)O)NC(=O)[C@H](Cc2ccccc2)NC(=O)[C@H](Cc2ccc(O)cc2)NC(=O)[C@H](CCC(=O)O)NC(=O)[C@H](CC(C)C)NC1=O [CP141099] (Ac-[hhPhe][Orn]LEYFEWLS; linker 2-C via X1) — what was its pIC50?
Reply: 7.56

---

test target: H1 HA A/California/07/2009 (Influenza A virus)
assay remarks: AlphaLISA binding competition, HA + head-binder (control)
*1 amine or outer side, *2 acyl side, *3 side chain or, on linkers, in order; H or OH if unused. Where a SMILES comes first, the peptide text is derived from it. Bridges are numbered along the chain shown (N, C = ends). [ ]: non-standard residue; d: D form. X2 = O=C(CN(CC(=O)[*:2])CC(=O)[*:3])[*:1]; Ala(cPent) = N[C@@H](CC1CCCC1)C(=O)O; hhPhe = N[C@@H](CCCc1ccccc1)C(=O)O; Orn = NCCC[C@H](N)C(=O)O; βAla = NCCC(=O)O
quantity measured: IC50

| compound | IC50 |
| --- | --- |
| CC(=O)N[C@@H](CCCNC(=N)N)C(=O)N[C@H]1CCCNC(=O)CN2CC(=O)NCCC[C@@H](C(N)=O)NC(=O)[C@H](CO)NC(=O)[C@H](CC(C)C)NC(=O)[C@H](Cc3c[nH]c4ccccc34)NC(=O)[C@H](CCC(=O)O)NC(=O)[C@H](Cc3ccccc3)NC(=O)[C@H](Cc3ccc(O)cc3)NC(=O)[C@H](CCCNC(=O)C2)NC(=O)[C@H](CC(C)C)NC1=O [CP141032] (Ac-R[Orn]L[Orn]YFEWLS[Orn]-NH2; linker 2-4-11 via X2) | > 50.1 µM |
| CC(=O)N[C@@H](CCCc1ccccc1)C(=O)N[C@H]1CCCNC(=O)CCNC(=O)[C@H](CO)NC(=O)[C@H](CC(C)C)NC(=O)[C@H](Cc2c[nH]c3ccccc23)NC(=O)[C@H](CCC(=O)O)NC(=O)[C@H](Cc2ccccc2)NC(=O)[C@H](Cc2ccc(O)cc2)NC(=O)[C@H](CCCNC(=N)N)NC(=O)[C@H](CC(C)C)NC1=O [CP132070] (Ac-[hhPhe][Orn]LRYFEWLS[βAla]; lactam 2-C) | > 50.1 µM |

Turning now to a further record.
Query: // lookup IC50 for CC(=O)N[C@@H](CCCc1ccccc1)C(=O)N[C@H]1CCCNC(=O)CCNC(=O)[C@H](CO)NC(=O)[C@H](CC(C)C)NC(=O)[C@H](Cc2c[nH]c3ccccc23)NC(=O)[C@H](CCC(=O)O)NC(=O)[C@H](Cc2ccccc2)NC(=O)[C@H](Cc2ccc(O)cc2)NC(=O)[C@H](CCC(=O)O)NC(=O)[C@H](CC2CCCC2)NC1=O [CP141036] (Ac-[hhPhe][Orn][Ala(cPent)]EYFEWLS[βAla]; lactam 2-C)
Reply: > 50.1 µM
